Source: PubChem BioAssay

# ASSAY_SYSTEM: Torsin-1A (Homo sapiens) (UniProt O14656)
# Sequence (O14656 whole entry, looked up): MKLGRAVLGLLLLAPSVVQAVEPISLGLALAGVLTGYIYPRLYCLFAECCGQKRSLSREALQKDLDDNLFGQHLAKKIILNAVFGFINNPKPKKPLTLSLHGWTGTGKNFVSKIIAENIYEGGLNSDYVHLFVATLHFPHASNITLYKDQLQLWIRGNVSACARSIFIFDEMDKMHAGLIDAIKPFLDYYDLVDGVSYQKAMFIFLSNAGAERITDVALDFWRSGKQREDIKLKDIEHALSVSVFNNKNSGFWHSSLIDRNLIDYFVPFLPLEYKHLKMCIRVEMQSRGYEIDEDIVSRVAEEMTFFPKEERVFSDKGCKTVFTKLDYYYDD
# PROTOCOL_SUMMARY: torsin A binders from cell lysate, primary screen, small-molecule microarray, wild-type, 635/667 nm (AID 1149)
# CONDITION_LABEL: COS7 hTOR1A-WT lysate, 635 nm fluorescence, higher = more signal
// condition not met strictly below 0.4 in composite z-score; condition met otherwise

> print(dat)
                                    molecule     classification
 1  CCCNC(=O)OC[C@H]1O[C@H](CCON=C(C)CCN2CCc3nc(CC)c(CC)cc3C2)C=C[C@@H]1Oc1ccc(OC)cc1      condition met
 2  C=CC[C@@H]1C=C[C@H](ON=C2[C@H]3CCn4c(=O)n(-c5ccccc5)c(=O)n4[C@H]3[C@H](O)[C@@H]3O[C@H]23)[C@@H](CO)O1  condition not met
 3  CCOC(=O)[C@H](CC(C)C)NC(=O)CCC1CC(OC(=O)NCc2ccc3c(c2)OCO3)CC2(CCCC(COC(=O)NCCCN3CCCC3=O)O2)O1 (stereo not given in full)  condition not met
 4  C#CCCCON=C1[C@H]2CCn3c(=O)n(-c4ccccc4)c(=O)n3[C@H]2[C@H](O)[C@@H]2O[C@H]12      condition met
 5  C[C@@H]1CC[C@H]2C(=O)O[C@@H](COc3ccc(C(C)(C)C)cc3)CN2[C@@H]1c1ccc(Br)cc1  condition not met
 6  COC(=O)[C@@H]1CC[C@@H](C)[C@H](c2ccc(Br)cc2)N1  condition not met
 7  CC(=O)OC[C@H]1O[C@H](CCON=C2[C@H]3CCn4c(=O)n(-c5ccccc5)c(=O)n4[C@H]3[C@H](O)[C@@H]3O[C@H]23)C=C[C@@H]1OC(C)=O  condition not met
 8  O=C1CCCC=C1C(O)CCOC(c1ccccc1)(c1ccccc1)c1ccccc1 (stereo not given)  condition not met
 9  C[C@H]1Cc2c(COc3ccccc3)nc3c(c2CO1)CN(CCOc1ccccc1)CC3      condition met
10  CC(C)=CCCC(C)=CCON=C1C[C@@H](O)[C@@H](O)[C@@H]2[C@@H]3C(=O)N(C(C)(C)C)C(=O)[C@@H]3CC[C@@H]12  condition not met
11  CC(=O)OC[C@H]1O[C@H](CC=NO[C@H](C)c2cn([C@H](CO)Cc3ccccc3)nn2)C=C[C@@H]1OC(C)=O      condition met
12  Cn1c(=O)n2n(c1=O)[C@H]1[C@H](O)[C@@H]3O[C@@H]3C(=NOCc3ccccc3)[C@H]1CC2  condition not met
13  C[C@@H](c1ccccc1)N1C(=O)[C@H]2[C@H]3[C@H](O)[C@H](O)CC(=O)[C@H]3CC[C@H]2C1=O  condition not met
14  COc1ccc(O[C@H]2C=C[C@@H](c3ccccc3)O[C@@H]2CON=C(C)CCN2CCc3nc(-c4ccccc4)c(-c4ccccc4)cc3C2)cc1  condition not met
15  COC(=O)CC=C[C@@H](C)[C@H](OCc1cccc(-c2ccccc2)c1)C1CCCCC1      condition met

---

# ASSAY_SYSTEM: Neurogenic locus notch homolog protein 2 (Homo sapiens) (UniProt Q04721)
# Sequence (Q04721 whole entry, looked up): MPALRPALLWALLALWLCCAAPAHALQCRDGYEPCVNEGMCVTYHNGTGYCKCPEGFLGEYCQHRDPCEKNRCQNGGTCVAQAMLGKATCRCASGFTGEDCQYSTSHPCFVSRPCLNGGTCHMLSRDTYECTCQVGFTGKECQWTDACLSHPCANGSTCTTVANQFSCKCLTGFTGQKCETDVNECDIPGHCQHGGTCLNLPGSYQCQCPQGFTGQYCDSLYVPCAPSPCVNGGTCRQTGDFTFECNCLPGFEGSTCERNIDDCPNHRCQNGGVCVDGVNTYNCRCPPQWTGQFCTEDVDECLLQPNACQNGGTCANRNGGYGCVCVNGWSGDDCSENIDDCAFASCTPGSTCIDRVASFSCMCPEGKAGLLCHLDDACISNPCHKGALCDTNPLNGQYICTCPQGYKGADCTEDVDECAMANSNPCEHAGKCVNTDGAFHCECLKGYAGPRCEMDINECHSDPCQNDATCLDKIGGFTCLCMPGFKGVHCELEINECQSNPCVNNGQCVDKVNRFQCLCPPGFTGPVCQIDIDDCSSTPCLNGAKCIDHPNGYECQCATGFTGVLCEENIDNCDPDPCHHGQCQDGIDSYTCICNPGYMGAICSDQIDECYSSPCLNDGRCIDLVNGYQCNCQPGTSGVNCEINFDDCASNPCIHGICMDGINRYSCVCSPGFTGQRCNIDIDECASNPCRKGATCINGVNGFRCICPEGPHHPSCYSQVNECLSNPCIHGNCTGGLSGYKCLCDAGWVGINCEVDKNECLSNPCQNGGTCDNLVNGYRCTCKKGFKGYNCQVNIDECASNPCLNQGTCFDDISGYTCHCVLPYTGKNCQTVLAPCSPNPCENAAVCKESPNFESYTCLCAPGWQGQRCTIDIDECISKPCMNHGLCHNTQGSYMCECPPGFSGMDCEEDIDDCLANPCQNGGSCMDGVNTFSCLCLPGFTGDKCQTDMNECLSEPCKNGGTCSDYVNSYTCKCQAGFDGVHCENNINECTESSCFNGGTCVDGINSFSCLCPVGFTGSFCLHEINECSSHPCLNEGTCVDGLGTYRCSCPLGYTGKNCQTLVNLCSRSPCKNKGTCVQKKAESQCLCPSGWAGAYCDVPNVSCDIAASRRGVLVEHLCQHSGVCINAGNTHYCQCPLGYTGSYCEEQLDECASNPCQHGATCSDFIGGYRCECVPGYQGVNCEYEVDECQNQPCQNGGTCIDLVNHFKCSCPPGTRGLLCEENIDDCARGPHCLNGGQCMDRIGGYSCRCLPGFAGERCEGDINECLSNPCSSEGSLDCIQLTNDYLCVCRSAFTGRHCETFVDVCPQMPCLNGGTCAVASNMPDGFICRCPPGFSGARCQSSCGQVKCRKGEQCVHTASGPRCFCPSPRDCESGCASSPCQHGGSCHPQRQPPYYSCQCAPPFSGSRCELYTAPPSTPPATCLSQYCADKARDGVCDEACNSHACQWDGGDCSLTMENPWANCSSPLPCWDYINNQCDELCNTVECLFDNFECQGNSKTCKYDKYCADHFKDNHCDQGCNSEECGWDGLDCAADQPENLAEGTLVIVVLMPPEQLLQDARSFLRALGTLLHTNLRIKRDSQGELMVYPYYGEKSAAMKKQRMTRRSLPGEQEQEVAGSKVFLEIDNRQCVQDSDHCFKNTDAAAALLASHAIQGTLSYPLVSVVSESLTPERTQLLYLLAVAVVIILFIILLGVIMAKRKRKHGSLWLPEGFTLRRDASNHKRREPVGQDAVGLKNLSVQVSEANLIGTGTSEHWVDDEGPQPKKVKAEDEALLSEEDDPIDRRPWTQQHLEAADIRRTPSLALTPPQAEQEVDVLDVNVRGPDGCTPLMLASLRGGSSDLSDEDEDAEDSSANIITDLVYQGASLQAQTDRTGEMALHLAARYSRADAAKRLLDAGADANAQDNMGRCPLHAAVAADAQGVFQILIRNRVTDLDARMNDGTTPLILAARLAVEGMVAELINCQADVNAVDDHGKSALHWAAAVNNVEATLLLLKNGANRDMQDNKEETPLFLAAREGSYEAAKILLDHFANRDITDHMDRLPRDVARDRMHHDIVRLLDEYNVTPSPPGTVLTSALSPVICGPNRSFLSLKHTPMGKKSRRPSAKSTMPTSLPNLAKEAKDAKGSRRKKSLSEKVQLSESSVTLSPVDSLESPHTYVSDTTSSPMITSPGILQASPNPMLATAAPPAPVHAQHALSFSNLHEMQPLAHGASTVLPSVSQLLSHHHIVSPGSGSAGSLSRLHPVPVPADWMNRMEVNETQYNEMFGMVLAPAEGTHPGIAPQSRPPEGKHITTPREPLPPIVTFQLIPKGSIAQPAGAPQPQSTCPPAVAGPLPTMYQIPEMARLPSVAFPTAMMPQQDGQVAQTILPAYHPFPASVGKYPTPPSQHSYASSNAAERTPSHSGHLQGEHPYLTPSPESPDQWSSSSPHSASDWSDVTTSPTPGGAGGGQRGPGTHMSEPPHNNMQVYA
# PROTOCOL_SUMMARY: Notch2 binders on small-molecule microarrays, primary screen, biochemical, small-molecule microarray, 635 nm fluorescence, stem cell growth factors (AID 1073)
# CONDITION_LABEL: Notch2 binding, higher = more signal
composite z-score vs 0.4: at or above is 1, below is 0.

> print(dat)
                                    compound  classification
 1  COC(=O)[C@H](C)NC(=O)CCC1CC(OC(=O)NCc2ccc3c(c2)OCO3)CC2(CCCC(COC(=O)NCc3cccc(C(F)(F)F)c3)O2)O1 (stereo partly specified)               1
 2  COC(=O)[C@H]1O[C@@H](c2c(OC)c(OC)c(C)c(OC)c2OC)[C@H](C)[C@@H](O)[C@H]1C               1
 3  CC(C)CON=C1C[C@@H](O)[C@@H](O)[C@@H]2[C@@H]3C(=O)N(c4cccc(Oc5ccccc5)c4)C(=O)[C@@H]3CC[C@@H]12               0
 4  C#CCCCON=C1C[C@@H](O)[C@@H](O)[C@@H]2[C@@H]3C(=O)N(c4ccc(F)cc4F)C(=O)[C@@H]3CC[C@H]12               0
 5  O=C(NN=C1C[C@@H](O)[C@@H](O)[C@@H]2[C@@H]3C(=O)N(Cc4ccccc4)C(=O)[C@@H]3CC[C@@H]12)OCc1ccccc1               1
 6  C[C@H]1CC[C@H]2C(=O)OC(CO)CN2[C@@H]1c1ccc(Br)cc1 (stereo partly specified)               0
 7  C[C@@H](c1ccccc1)N1C(=O)[C@H]2[C@H]3[C@H](O)[C@H](O)CC(=O)[C@H]3CC[C@H]2C1=O               1
 8         COC(=O)C=CCCc1coc(C=CCNC(=O)OC)n1               1
 9  O=C1CCCC(C2=CCCCC2=O)C1 (stereo unspecified)               0
10  O=C(NN=C1C[C@@H](O)[C@@H](O)[C@@H]2[C@@H]3C(=O)N(C4CCCCC4)C(=O)[C@@H]3CC[C@@H]12)OCc1ccccc1               0
11  COC(=O)CC=C[C@@H](C)[C@@H]1C=C[C@H](O)[C@@H](CO)O1               1
12  Cc1ccc(S(=O)(=O)OC[C@H]2CN3[C@H](c4ccc(Br)cc4)[C@@H](C)CC[C@H]3C(=O)O2)cc1               0
13  COc1cccc([C@H]2Oc3ccc(OC)cc3C(=NO[C@H](C)c3cn([C@H](CO)Cc4ccccc4)nn3)[C@@H]2O)c1               0
14  C#CCCCON=C1C[C@@H](O)[C@@H](O)[C@@H]2[C@@H]3C(=O)N(CCC(=O)OCC)C(=O)[C@@H]3CC[C@H]12               1
15  O=C1C=C[C@@H](O)[C@@H]2[C@@H]3C(=O)N(c4ccc(F)cc4F)C(=O)[C@@H]3CC[C@@H]12               1
